Origin of values: paper PMC4245091

- targetOrSystem: Mushroom tyrosinase
- Construct: commercial native mushroom preparation (Sigma-Aldrich)
- assayExplanation: L-tyrosine to dopachrome, absorbance at […] nm
- settings: L-tyrosine 0.2 mg/ml; 2 µg/ml enzyme; 100 mM phosphate pH 6.8; 5% ethanol; 25 °C; 30 min
measuredEndpoint: IC50 (µM)

[[record]]
compound = "CC(C)c1ccc(C(=O)CC(Sc2ccc(Cl)cc2)C(=O)O)cc1 (stereo not shown)"
targetorsystem = "Mushroom tyrosinase"
assayvalue = 8

